Biological target: Vanilloid receptor (Rattus norvegicus, UniProt Q9ERZ8+Q9WUD2+O35433)
Assay: Antagonistic activity against vanilloid receptor as concentration to reduce the response to […] by 50% from neonatal rat culture spinal sensory neurons using [Ca2+] -influx assay
Assay type: functional
property-measured: IC50 (nM)
Use nM as the unit, but write only the number.

Example compounds with recorded IC50:
INSERT INTO measurements (compound, measured_target, recorded_number) VALUES
  ('COc1cc(CCCN(CCc2ccc(F)cc2)/C(S)=N/CCc2ccccc2)ccc1O', 'Vanilloid receptor (Rattus norvegicus, UniProt Q9ERZ8+Q9WUD2+O35433)', 1.2),
  ('COc1cc(CCCN(CCc2ccccc2)/C(S)=N/CCc2ccccc2)ccc1O', 'Vanilloid receptor (Rattus norvegicus, UniProt Q9ERZ8+Q9WUD2+O35433)', 0.32),
  ('COc1cc(CCCN(CCc2ccc(Cl)cc2)/C(S)=N/CCc2ccccc2)ccc1O', 'Vanilloid receptor (Rattus norvegicus, UniProt Q9ERZ8+Q9WUD2+O35433)', 0.55),
  ('COc1ccc(CCCN(/C(S)=N/CCc2ccccc2)C(C)C)cc1OC', 'Vanilloid receptor (Rattus norvegicus, UniProt Q9ERZ8+Q9WUD2+O35433)', 10.5);

**Query** Consider the compound COc1cc(CCCN(/C(S)=N/CCc2ccccc2)C(C)C)ccc1O and give its recorded IC50.
**Result** 2.5

**Query** Consider the compound Oc1cc2c(cc1O)CN(C(=S)NCCc1ccc(Cl)cc1)CCC2 [CAPSAZEPINE] and give its recorded IC50.
**Result** 650000

**Query** Consider the compound COc1cc(CCCN(/C(S)=N/CCc2ccccc2)C(c2ccccc2)c2ccccc2)ccc1O and give its recorded IC50.
**Result** 0.46

**Query** Consider the compound COc1cc(CCCCN(CCc2ccccc2)/C(S)=N/CCc2ccccc2)ccc1O and give its recorded IC50.
**Result** 6.1

**Query** Consider the compound COc1cc(CCCN(Cc2ccccc2)/C(S)=N/CCc2ccccc2)ccc1O and give its recorded IC50.
**Result** 0.95

**Query** Consider the compound COc1ccc(CCN(CCCc2ccc(O)c(OC)c2)/C(S)=N/CCc2ccccc2)cc1 and give its recorded IC50.
**Result** 0.72

----------
Molecular target: Vanilloid receptor (Rattus norvegicus, UniProt Q9ERZ8+Q9WUD2+O35433)
Test: Agonistic activity towards vanilloid receptor, [Ca2+] influx in neonatal rat spinal sensory neuronal culture
Assay type: functional
property-measured: EC50

INSERT INTO measurements (compound, result) VALUES
  ('COc1cc(CCC/N=C(\S)NCCc2ccccc2)ccc1O', '> 30 µM');

**Query** Consider the compound COc1cc(CCC2CCCN2/C(S)=N/CCc2ccccc2)ccc1O (stereo not drawn) and give its recorded EC50.
**Result** 3 µM

**Query** Consider the compound COc1cc(CCCN(C)/C(S)=N/CCc2ccccc2)ccc1O and give its recorded EC50.
**Result** > 30 µM

All values here come from ChEMBL document CHEMBL1136576.
